assaySystem: recombinant human PAD4 (human, UniProt Q9UM07 1-663)
Sequence (Q9UM07 whole entry): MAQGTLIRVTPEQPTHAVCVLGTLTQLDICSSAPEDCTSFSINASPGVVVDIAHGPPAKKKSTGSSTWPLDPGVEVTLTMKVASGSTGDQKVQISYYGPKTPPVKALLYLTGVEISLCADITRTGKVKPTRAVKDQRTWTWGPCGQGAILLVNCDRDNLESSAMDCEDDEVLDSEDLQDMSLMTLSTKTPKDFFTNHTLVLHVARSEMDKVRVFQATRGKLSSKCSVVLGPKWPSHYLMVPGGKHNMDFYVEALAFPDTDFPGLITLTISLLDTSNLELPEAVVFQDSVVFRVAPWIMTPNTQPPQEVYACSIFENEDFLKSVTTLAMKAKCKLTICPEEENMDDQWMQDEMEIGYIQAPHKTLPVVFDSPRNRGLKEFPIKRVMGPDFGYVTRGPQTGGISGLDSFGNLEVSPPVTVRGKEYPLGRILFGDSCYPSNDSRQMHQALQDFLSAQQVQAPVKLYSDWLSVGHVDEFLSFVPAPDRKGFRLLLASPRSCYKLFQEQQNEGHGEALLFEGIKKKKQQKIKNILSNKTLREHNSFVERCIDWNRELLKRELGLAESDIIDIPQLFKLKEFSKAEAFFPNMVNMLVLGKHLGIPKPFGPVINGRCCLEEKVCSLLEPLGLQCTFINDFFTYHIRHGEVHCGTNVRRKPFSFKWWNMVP
testSummary: cell-based or functional assay
Give IC50 (average), PAD4 citrullination of peptide …, RapidFire MS for every item shown.
Write it as a number; the unit nM goes unstated.

Query block: Please look up its IC50 (average), PAD4 citrullination of peptide …, RapidFire MS: hz20-12 (antibody, V domains shown, light constant region not tied to this antibody) VH: QVQLVQSGAEVAKPGASVKVSCKASGYTFTNYGISWVRQRPGQGLEWMGEIYPRSGNTYHNEKFKDRVTMTTDTSTSTAYMELRSLRSEDTAVYYCARSMITTRYWYFDVWGKGTTVTVSS VL: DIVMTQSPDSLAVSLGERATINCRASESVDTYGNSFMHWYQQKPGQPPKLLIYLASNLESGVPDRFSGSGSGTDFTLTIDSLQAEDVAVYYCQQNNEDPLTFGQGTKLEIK
Result block: 59

Query block: Follow-up item: hz13-12 (antibody, IgG1, V domains shown, also called clone 13-based hz13-12 antibody) VH: EVQLVQSGAEVKKPGATVKISCTSSDFNIKDHFIHWVQQAPGKGLEWMGRIDPEDDETKYAPKFQDRVTITADTSTDTAYMELSSLRSEDTAVYYCAGYGNYEGAMDYWGQGTTVTVSS VL: DVVMTQSPLSLPVTLGQPASISCRASENVNNYGIGFMNWFQQRPGQSPRLLIYAASRRGSGVPDRFSGSGSGTDFTLKISRVEEEDVGVYYCQQSKEVPYTFGGGTKVEIK
Result block: 42.4

Query block: Follow-up item: hz20-11 (antibody, V domains shown, light constant region not tied to this antibody) VH: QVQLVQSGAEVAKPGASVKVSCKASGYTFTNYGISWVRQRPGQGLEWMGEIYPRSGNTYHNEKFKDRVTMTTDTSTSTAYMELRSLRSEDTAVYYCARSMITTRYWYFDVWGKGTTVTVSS VL: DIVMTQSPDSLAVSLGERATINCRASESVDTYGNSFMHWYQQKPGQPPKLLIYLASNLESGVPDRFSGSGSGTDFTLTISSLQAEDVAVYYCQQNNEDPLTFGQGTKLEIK
Result block: 65.7

Query block: Follow-up item: clone 20 (mAb20) (antibody, V domains shown, Murine anti-human PAD4 antibody; also called murine anti-human clone 20 antibody) VH: QVQLQQSGAELARPGASVKLSCKATGYTFTNYGISWVKQRTGQGLEWIGEIYPRSGNTYHNEKFKDKATLTADKSSSTAYMEFRSLTSEDSAVYFCARSMITTRYWYFDVWGKGTTVTVSS VL: NIVLTQSPASLAVSLGQRATLSCRASESVDTYGNSFMHWYQQKPGQPPKLLIYLASNLESGVPARFSGSGSRTDFTLTIDPVEADDAATYYCQQNNEDPLTFGAGTKLELK
Result block: 104
